Molecular target: recombinant human PREP (Homo sapiens (Human))
Sequence (P48147 whole entry): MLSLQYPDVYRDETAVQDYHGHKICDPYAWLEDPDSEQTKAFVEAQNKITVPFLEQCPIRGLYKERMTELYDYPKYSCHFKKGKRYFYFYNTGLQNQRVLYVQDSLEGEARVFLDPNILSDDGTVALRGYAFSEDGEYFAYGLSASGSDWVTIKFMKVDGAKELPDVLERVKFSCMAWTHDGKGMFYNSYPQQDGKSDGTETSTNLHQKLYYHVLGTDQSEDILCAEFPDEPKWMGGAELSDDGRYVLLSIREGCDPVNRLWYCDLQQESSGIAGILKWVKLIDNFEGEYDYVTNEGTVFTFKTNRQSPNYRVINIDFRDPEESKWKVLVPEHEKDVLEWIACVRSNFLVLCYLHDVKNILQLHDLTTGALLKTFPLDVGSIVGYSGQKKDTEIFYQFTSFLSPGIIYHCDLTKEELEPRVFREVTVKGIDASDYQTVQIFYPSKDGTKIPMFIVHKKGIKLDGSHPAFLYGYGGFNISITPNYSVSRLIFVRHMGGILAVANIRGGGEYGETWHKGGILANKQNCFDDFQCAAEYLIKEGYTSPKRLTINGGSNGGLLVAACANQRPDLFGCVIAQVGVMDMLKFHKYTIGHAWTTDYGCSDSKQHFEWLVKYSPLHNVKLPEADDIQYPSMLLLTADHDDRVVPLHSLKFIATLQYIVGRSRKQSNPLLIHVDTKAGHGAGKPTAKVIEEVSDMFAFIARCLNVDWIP
Test: In vitro inhibition assay, prolyl oligopeptidase
Conditions: Z-Gly-Pro-AMC substrate
Kindly supply the reported IC50 values for the records listed here.

Some entries whose results are on file:
Exercise: Please list IC50 recorded for the compound CC(C)[C@H](N)C(=O)N1Cc2ccc(F)cc2C1 [compound 5321]
Solution: > 100 µM

Exercise: Please list IC50 recorded for the compound CC[C@@H](C)C(N)C(=O)N1Cc2ccc(F)cc2C1 (stereo partly drawn) [compound 5291, reference compound]
Solution: > 100 µM

Exercise: Please list IC50 recorded for the compound NC1(C(=O)N2CCSC2)CCNCC1 [compound 5554]
Solution: 25.1 µM

Required: IC50, one value per compound below.
1. CC(C)(C)[C@H](N)C(=O)N1Cc2ccc(F)cc2C1 [compound 5322]
2. O=C([C@@H]1CCCCN1)N1Cc2ccc(F)cc2C1 [compound 5323]

Solution:
> 100 µM
> 100 µM

Required: IC50, one value per compound below.
1. CC(C)[C@H](N)C(=O)N1CCC[C@H]1C(=O)CO [compound 5298]
2. CC[C@@H](C)[C@H](N)C(=O)N1Cc2ccccc2[C@H]1B(O)O [1049 C]
3. CC(C)(C)[C@H](N)C(=O)N1CCC[C@H]1C#N [compound 9987]
4. NC(=O)C[C@H](N)C(=O)N1Cc2ccc(F)cc2C1 [compound 5316]
5. CN(C)C(=O)C[C@H](N)C(=O)N1Cc2ccc(F)cc2C1 [compound 5317]

Solution:
1. > 100 µM
2. > 100 µM
3. > 100 µM
4. > 100 µM
5. > 100 µM

Required: IC50, one value per compound below.
1. N[C@H](C(=O)N1Cc2ccc(F)cc2C1)C1CCCCC1 [compound 5311]
2. NCCCC[C@H](N)C(=O)N1Cc2ccc(F)cc2C1 [compound 5325]

Solution:
1: > 100 µM; 2: > 100 µM
